Measured values drawn from the supplement of paper PMC6897291 for this set.

Test system: RIVA
ASSAY REMARKS: growth inhibition by drug alone (1 - RLU/untreated control) (fraction); higher = stronger inhibition
STATED CONDITIONS: 100 nM; time (day): 6; 177Lu-lilotomab satetraxetan 0 ug/ml
Each entry below lists one item and its recorded growth inhibition by drug alone value.
The answer should be written as a number, with no unit following it.

COMPOUND | REPORTED PROPERTY | MEASUREMENT
Cc1ccc(-c2cc(C(F)(F)F)nn2-c2ccc(S(N)(=O)=O)cc2)cc1 | growth inhibition by drug alone | -0.232
O=C(O)C(Cc1c[nH]c2ccccc12)N1C(=O)c2ccccc2C1=O (configuration not stated) | growth inhibition by drug alone | -0.339
CS(=O)(=O)N1CCN(Cc2cc3nc(-c4cccc5[nH]ncc45)nc(N4CCOCC4)c3s2)CC1 | growth inhibition by drug alone | 0.221
CC(C)CC(=O)Nc1n[nH]c2c1CN(C(=O)C1CCN(C)CC1)C2(C)C | growth inhibition by drug alone | 0.378
Cc1cccc(-c2nn3c(c2-c2ccnc4ccc(C(N)=O)cc24)CCC3)n1 | growth inhibition by drug alone | -0.229

Now for another entry.
Which growth inhibition by drug alone reading was recorded for the compound Nc1ccc(C(=O)Nc2cccc(-c3nc(N4CCOCC4)c4oc5ncccc5c4n3)c2)cn1 ? -0.0381

====

System: RIVA
ASSAY REMARKS: growth inhibition by drug alone (1 - RLU/untreated control) (fraction); higher = stronger inhibition
STATED CONDITIONS: 10 nM; time (day): 5; 177Lu-lilotomab satetraxetan 0 ug/ml
Where a name gives a salt, the structure may show the parent alone.
REPORTED PROPERTY: growth inhibition by drug alone
The answer should be written as a number, with no unit following it.

Field: example entries. Status: answers known.
COMPOUND | REPORTED PROPERTY | MEASUREMENT
CCOC(=O)[C@@H](C)Oc1cccc2c(=O)n(CC(=O)Nc3ccc4c(c3)OCCO4)ccc12 | growth inhibition by drug alone | -0.182
OC[C@H]1O[C@@H](n2cnc3c2N=CNC[C@H]3O)C[C@@H]1O | growth inhibition by drug alone | -0.109
CN1CC[C@H](c2c(O)cc(O)c3c(=O)cc(-c4ccccc4Cl)oc23)[C@H](O)C1 [Flavopiridol hydrochloride] | growth inhibition by drug alone | -0.189
CC(=O)c1c(C)c2cnc(Nc3ccc(N4CCNCC4)cn3)nc2n(C2CCCC2)c1=O | growth inhibition by drug alone | -0.148
C[C@@H](N)[C@H]1CC[C@H](C(=O)Nc2ccncc2)CC1 | growth inhibition by drug alone | -0.134
Cn1cnc([N+](=O)[O-])c1Sc1ncnc2[nH]cnc12 | growth inhibition by drug alone | -0.12

Notebook entry, RIVA assay: growth inhibition by drug alone of N#CCNC(=O)c1ccc(-c2ccnc(Nc3ccc(N4CCOCC4)cc3)n2)cc1 = ? -0.267

Notebook entry, RIVA assay: growth inhibition by drug alone of O=C(c1ccc(OCCN2CCCCC2)cc1)c1c(-c2ccc(O)cc2)sc2cc(O)ccc12 [Evista (Raloxifene Hydrochloride)] = ? -0.151

Notebook entry, RIVA assay: growth inhibition by drug alone of CC(C)OC(=O)C1=CN(C(=O)c2ccc(F)c(F)c2)CC(C)(C)c2c1[nH]c1ccccc21 = ? 0.00693

====

System: RIVA
ASSAY REMARKS: growth inhibition by drug plus 177Lu-lilotomab satetraxetan (1 - RLU/untreated control) (fraction); higher = stronger inhibition
STATED CONDITIONS: 100 nM; time (day): 5; 177Lu-lilotomab satetraxetan 0.5 ug/ml
REPORTED PROPERTY: growth inhibition by drug plus 177Lu-lilotomab satetraxetan

Field: example entries. Status: answers known.
COMPOUND | MEASUREMENT
CC(C)OC(=O)C1=CN(C(=O)c2ccc(F)c(F)c2)CC(C)(C)c2c1[nH]c1ccccc21 | 0.608
O=C(CCCCCCC(=O)Nc1ccccc1)NO [Vorinostat (SAHA)] | 0.586

Now for another entry.
Which growth inhibition by drug plus 177Lu-lilotomab satetraxetan reading was recorded for the compound COc1c(C)cnc(Cn2cnc3c(Cl)nc(N)nc32)c1C ? 0.584

====

Test system: U-2932
ASSAY REMARKS: growth inhibition by drug alone (1 - RLU/untreated control) (fraction); higher = stronger inhibition
STATED CONDITIONS: 1000 nM; time (day): 3; 177Lu-lilotomab satetraxetan 0 ug/ml
Rule: true for growth inhibition by drug alone not less than 0.1, false for anything less.

COMPOUND | LABEL CLASS
CCc1ccc(CCOc2ccc(CC3SC(=O)NC3=O)cc2)nc1 (stereo unspecified) | false
O=C(Nc1cccnc1)N1CCC(Cc2cccc(Oc3ccc(C(F)(F)F)cn3)c2)CC1 | true
O=C1C(Cl)=C(NCCN2CCOCC2)C(=O)c2ncccc21 | true
O=C1c2ccccc2C(=O)c2c(NCCc3ccc(O)cc3)ccc(NCCc3ccc(O)cc3)c21 | false

Form field: growth inhibition by drug alone at least 0.1? Entry: COc1ccc(-c2oc3cc(OC)ccc3c2C(=O)c2ccc(C#N)cc2)cc1 false

Form field: growth inhibition by drug alone at least 0.1? Entry: CC[C@@H]1C(=O)N(C)c2cnc(Nc3ccc(C(=O)N[C@H]4CC[C@H](N5CCN(CC6CC6)CC5)CC4)cc3OC)nc2N1C(C)C true

Form field: growth inhibition by drug alone at least 0.1? Entry: Fc1cc(-c2cccc3ncc(-c4cnn(C5CCNCC5)c4)nc23)cc(F)c1CN1CCOCC1 false

====

Test system: RIVA
ASSAY REMARKS: growth inhibition by drug alone (1 - RLU/untreated control) (fraction); higher = stronger inhibition
STATED CONDITIONS: 10 nM; time (day): 6; 177Lu-lilotomab satetraxetan 0 ug/ml
REPORTED PROPERTY: growth inhibition by drug alone

Notebook entry, RIVA assay: growth inhibition by drug alone of O=C(NOC[C@H](O)CO)c1ccc(F)c(F)c1Nc1ccc(I)cc1F = ? -0.212

Notebook entry, RIVA assay: growth inhibition by drug alone of C[C@@H](Oc1cc(-n2cnc3ccc(CN4CCN(C)CC4)cc32)sc1C(N)=O)c1ccccc1C(F)(F)F = ? 0.223

Notebook entry, RIVA assay: growth inhibition by drug alone of CC(C)C[C@H](NC(=O)[C@H](Cc1ccccc1)NC(=O)c1cnccn1)B(O)O = ? 0.96

====

Tested on: U-2932
ASSAY REMARKS: growth inhibition by drug alone (1 - RLU/untreated control) (fraction); higher = stronger inhibition
STATED CONDITIONS: 10 nM; time (day): 5; 177Lu-lilotomab satetraxetan 0 ug/ml
Counter-ions that a name gives are not always drawn.
Rule: Yes for growth inhibition by drug alone not less than -0.02, No for anything less.

Previously resolved entries follow.
COMPOUND | SYSTEM | LABEL CLASS
CC(C)n1nc(-c2ccc3oc(N)nc3c2)c2c(N)ncnc21 | U-2932 | Yes
COc1cc2ncnc(Nc3ccc(Oc4ccccc4)cc3)c2cc1OC | U-2932 | Yes
CCc1ccc(CCOc2ccc(CC3SC(=O)NC3=O)cc2)nc1 (stereo unspecified) [Pioglitazone (Actos)] | U-2932 | No
COC(=O)C1=C(C)NC(C)=C(C(=O)OCCCN2CCC(c3ccccc3)(c3ccccc3)CC2)[C@H]1c1cccc([N+](=O)[O-])c1 [S-(+)-Niguldipine hydrochloride] | U-2932 | No

Form field: growth inhibition by drug alone at least -0.02? Entry: COc1ccc(S(=O)(=O)Nc2cccnc2Nc2ccc(O)cc2)cc1 Yes

Form field: growth inhibition by drug alone at least -0.02? Entry: CO[C@H]1C[C@@H]2CC[C@@H](C)[C@@](O)(O2)C(=O)C(=O)N2CCCC[C@H]2C(=O)O[C@H]([C@H](C)C[C@@H]2CC[C@@H](OCCO)[C@H](OC)C2)CC(=O)[C@H](C)/C=C(\C)[C@@H](O)[C@@H](OC)C(=O)[C@H](C)C[C@H](C)/C=C/C=C/C=C/1C [Everolimus (RAD001)] Yes

Form field: growth inhibition by drug alone at least -0.02? Entry: COc1ccc(COc2cc3oc(=O)c4cc(C(C)O)ccc4c3cc2OC)cc1 (stereo unspecified) [Palomid 529] No

Form field: growth inhibition by drug alone at least -0.02? Entry: COc1cc2ncnc(Nc3cccc(Br)c3)c2cc1OC No

Form field: growth inhibition by drug alone at least -0.02? Entry: NC(=O)c1ccc(-c2nc(-c3ccccn3)c(-c3ccc4c(c3)OCO4)[nH]2)cc1 No

Form field: growth inhibition by drug alone at least -0.02? Entry: CC[C@]1(O)C[C@@H]2CN(CCc3c([nH]c4ccccc34)[C@@](C(=O)OC)(c3cc4c(cc3OC)N(C)[C@H]3[C@@](O)(C(=O)OC)[C@H](OC(C)=O)[C@]5(CC)C=CCN6CC[C@]43[C@@H]65)C2)C1 [Vinblastine] Yes
